System: Coxsackie virus B4
Experiment: microbe, parasite or virus in culture
Format: cell-based
Conditions: Enterovirus B, B4, Vero, read-out: Antiviral activity EC50 Coxsackie virus B4
Measured property: EC50

INSERT INTO measurements (compound, measured_property, result) VALUES
  ('O=C1/C(=N\NC(=S)NN=Cc2ccccc2)c2ccccc2N1Cc1ccccc1', 'EC50', '> 100 µM'),
  ('O=C(N/N=C1\C(=O)Nc2ccc([N+](=O)[O-])cc21)N/N=C1\C(=O)Nc2ccc([N+](=O)[O-])cc21', 'EC50', '> 100 µM'),
  ('Cc1ccc2c(c1)/C(=N/NC(=O)N/N=C1\C(=O)Nc3ccc(C)cc31)C(=O)N2', 'EC50', '> 20 µM'),
  ('Nc1ncnc2c1ncn2C[C@H](O)CO [(S)-DHPA, reference compound]', 'EC50', '> 250 µM'),
  ('NC(=O)c1ncn([C@@H]2O[C@H](CO)[C@@H](O)[C@H]2O)n1 [Ribavirin, reference compound]', 'EC50', '250 µM'),
  ('O=C(N/N=C1\C(=O)Nc2ccc(Cl)cc21)N/N=C1\C(=O)Nc2ccc(Cl)cc21', 'EC50', '> 20 µM');
